Assay: Retardation factor in 1-butanol-acetic acid-water at 4:1:5 ratio by TLC
Format: physicochemical
Details: buffer
*1 amine or outer side, *2 acyl side, *3 side chain or, on linkers, in order; H or OH if unused. Where a SMILES comes first, the peptide text is derived from it. [ ]: non-standard residue; d: D form. X1 = CCCCCCCCCCCCNCCC[C@@H](N[*:1])C(=O)[*:2]; pGlu = O=C1CC[C@@H](C(=O)O)N1
Measured Rf by item
Could you respond with only the numeric value?

compound	Rf
CCNC(=O)[C@@H]1CCCN1C(=O)[C@H](CCCNC(=N)N)NC(=O)[C@H](CC(C)C)NC(=O)[C@@H](CCCN)NC(=O)[C@H](Cc1ccc(O)cc1)NC(=O)[C@H](CO)NC(=O)[C@H](Cc1c[nH]c2ccccc12)NC(=O)[C@H](Cc1cnc[nH]1)NC(=O)[C@@H]1CCC(=O)N1	0.26
CCNC(=O)[C@@H]1CCCN1C(=O)[C@H](CCCNC(=N)N)NC(=O)[C@H](CC(C)C)NC(=O)[C@@H](CCCCN)NC(=O)[C@H](Cc1ccc(O)cc1)NC(=O)[C@H](CO)NC(=O)[C@H](Cc1c[nH]c2ccccc12)NC(=O)[C@H](Cc1cnc[nH]1)NC(=O)[C@@H]1CCC(=O)N1	0.4
CCCCCCCCCCCCNCCC[C@@H](NC(=O)[C@H](Cc1ccc(O)cc1)NC(=O)[C@H](CO)NC(=O)[C@H](Cc1c[nH]c2ccccc12)NC(=O)[C@@H]1CCC(=O)N1)C(=O)N[C@@H](CC(C)C)C(=O)N[C@@H](CCCNC(=N)N)C(=O)N1CCC[C@H]1C(=O)NCC ([pGlu]WSY[X1]LRP-NHEt)	0.64

Exercise: Requested read-out: Rf. Entry: CCNC(=O)[C@@H]1CCCN1C(=O)[C@H](CCCNC(=N)N)NC(=O)[C@H](CC(C)C)NC(=O)[C@@H](CCCCN)NC(=O)[C@H](Cc1ccc(O)cc1)NC(=O)[C@H](CO)NC(=O)[C@H](Cc1c[nH]c2ccccc12)NC(=O)[C@@H]1CCC(=O)N1
Key: 0.49

###

Test: Retardation factor in 1-butanol-2-propanol-1 N ammonium hydroxide-ethyl acetate at 1:1:2.5:1 ratio by TLC
Format: physicochemical
Items are presented alongside their recorded Rf.
Respond using a number only.

Please review the following examples before continuing.
structure	observed
CCCCCCCCCCCCNCCC[C@@H](NC(=O)[C@H](Cc1ccc(O)cc1)NC(=O)[C@H](CO)NC(=O)[C@H](Cc1c[nH]c2ccccc12)NC(=O)[C@H](Cc1cnc[nH]1)NC(=O)[C@@H]1CCC(=O)N1)C(=O)N[C@@H](CC(C)C)C(=O)N[C@@H](CCCNC(=N)N)C(=O)N1CCC[C@H]1C(=O)NCC(N)=O	0.43
CC(C)C[C@H](NC(=O)[C@@H](CCCCN)NC(=O)[C@H](Cc1ccc(O)cc1)NC(=O)[C@H](CO)NC(=O)[C@H](Cc1c[nH]c2ccccc12)NC(=O)[C@H](Cc1cnc[nH]1)NC(=O)[C@@H]1CCC(=O)N1)C(=O)N[C@@H](CCCNC(=N)N)C(=O)N1CCC[C@H]1C(=O)NCC(N)=O	0.24
CCCCCCCCCCCCNCCCC[C@@H](NC(=O)[C@H](Cc1ccc(O)cc1)NC(=O)[C@H](CO)NC(=O)[C@H](Cc1c[nH]c2ccccc12)NC(=O)[C@H](Cc1cnc[nH]1)NC(=O)[C@@H]1CCC(=O)N1)C(=O)N[C@@H](CC(C)C)C(=O)N[C@@H](CCCNC(=N)N)C(=O)N1CCC[C@H]1C(=O)NCC	0.47

Let's switch to this compound now.
Exercise: Entry under review: CCCCCCCCCCCCNCCCC[C@@H](NC(=O)[C@H](Cc1ccc(O)cc1)NC(=O)[C@H](CO)NC(=O)[C@H](Cc1c[nH]c2ccccc12)NC(=O)[C@@H]1CCC(=O)N1)C(=O)N[C@@H](CC(C)C)C(=O)N[C@@H](CCCNC(=N)N)C(=O)N1CCC[C@H]1C(=O)NCC . Reported Rf?
Key: 0.47

###

Assay: Retardation factor in 1-butanol-ethyl acetate-acetic acid-water at 1:1:1:1 ratio by TLC
Type: physicochemical
Conditions: buffer
Entries annotated with measured Rf
In your answer, state the number alone without any accompanying words.

Sample answers from the record:
structure	Rf
CCCCCCCCCCCCNCCCC[C@@H](NC(=O)[C@H](Cc1ccc(O)cc1)NC(=O)[C@H](CO)NC(=O)[C@H](Cc1c[nH]c2ccccc12)NC(=O)[C@@H]1CCC(=O)N1)C(=O)N[C@@H](CC(C)C)C(=O)N[C@@H](CCCNC(=N)N)C(=O)N1CCC[C@H]1C(=O)NCC(N)=O	0.78
CCCCCCCCCCCCNCCCC[C@@H](NC(=O)[C@H](Cc1ccc(O)cc1)NC(=O)[C@H](CO)NC(=O)[C@H](Cc1c[nH]c2ccccc12)NC(=O)[C@@H]1CCC(=O)N1)C(=O)N[C@@H](CC(C)C)C(=O)N[C@@H](CCCNC(=N)N)C(=O)N1CCC[C@H]1C(=O)NCC	0.83
CCCCCCCCCCCCNCCCC[C@@H](NC(=O)[C@H](Cc1ccc(O)cc1)NC(=O)[C@H](CO)NC(=O)[C@H](Cc1c[nH]c2ccccc12)NC(=O)[C@H](Cc1cnc[nH]1)NC(=O)[C@@H]1CCC(=O)N1)C(=O)N[C@@H](CC(C)C)C(=O)N[C@@H](CCCNC(=N)N)C(=O)N1CCC[C@H]1C(=O)NCC(N)=O	0.74

Note: attention shifts to another entry.
Exercise: Look up Rf for this compound: CC(C)C[C@H](NC(=O)[C@@H](CCCCN)NC(=O)[C@H](Cc1ccc(O)cc1)NC(=O)[C@H](CO)NC(=O)[C@H](Cc1c[nH]c2ccccc12)NC(=O)[C@H](Cc1cnc[nH]1)NC(=O)[C@@H]1CCC(=O)N1)C(=O)N[C@@H](CCCNC(=N)N)C(=O)N1CCC[C@H]1C(=O)NCC(N)=O
Key: 0.57

###

Experiment: Retardation factor in 2-butanol-water at 1:1 ratio by TLC
Format: physicochemical
Conditions: buffer
*1 amine or outer side, *2 acyl side, *3 side chain or, on linkers, in order; H or OH if unused. Where a SMILES comes first, the peptide text is derived from it. [ ]: non-standard residue; d: D form. X1 = CCCCCCCCCCCCNCCC[C@@H](N[*:1])C(=O)[*:2]; pGlu = O=C1CC[C@@H](C(=O)O)N1
assayMetric: Rf

Below, each entry is followed by its recorded Rf result.
compound	observed
CC(C)C[C@H](NC(=O)[C@@H](CCCN)NC(=O)[C@H](Cc1ccc(O)cc1)NC(=O)[C@H](CO)NC(=O)[C@H](Cc1c[nH]c2ccccc12)NC(=O)[C@@H]1CCC(=O)N1)C(=O)N[C@@H](CCCNC(=N)N)C(=O)N1CCC[C@H]1C(=O)NCC(N)=O	0.24
CCCCCCCCCCCCNCCC[C@@H](NC(=O)[C@H](Cc1ccc(O)cc1)NC(=O)[C@H](CO)NC(=O)[C@H](Cc1c[nH]c2ccccc12)NC(=O)[C@@H]1CCC(=O)N1)C(=O)N[C@@H](CC(C)C)C(=O)N[C@@H](CCCNC(=N)N)C(=O)N1CCC[C@H]1C(=O)NCC ([pGlu]WSY[X1]LRP-NHEt)	0.47
CC(=O)NCCC[C@@H](NC(=O)[C@H](Cc1ccc(O)cc1)NC(=O)[C@H](CO)NC(=O)[C@H](Cc1c[nH]c2ccccc12)NC(=O)[C@H](Cc1cnc[nH]1)NC(=O)[C@@H]1CCC(=O)N1)C(=O)N[C@@H](CC(C)C)C(=O)N[C@@H](CCCNC(=N)N)C(=O)N1CCC[C@H]1C(=O)NCC(N)=O	0.33

With those in mind, consider the next compound.
Exercise: Which Rf value is on record for CCCCCCCCCCCCNCCC[C@@H](NC(=O)[C@H](Cc1ccc(O)cc1)NC(=O)[C@H](CO)NC(=O)[C@H](Cc1c[nH]c2ccccc12)NC(=O)[C@H](Cc1cnc[nH]1)NC(=O)[C@@H]1CCC(=O)N1)C(=O)N[C@@H](CC(C)C)C(=O)N[C@@H](CCCNC(=N)N)C(=O)N1CCC[C@H]1C(=O)NCC ?
Key: 0.4

###

Test: Retardation factor in 2-butanol-0.1 N acetic acid at 1:1 ratio by TLC
Format: physicochemical
*1 amine or outer side, *2 acyl side, *3 side chain or, on linkers, in order; H or OH if unused. Where a SMILES comes first, the peptide text is derived from it. [ ]: non-standard residue; d: D form. X1 = CCCCCCCCCCCCNCCC[C@@H](N[*:1])C(=O)[*:2]; pGlu = O=C1CC[C@@H](C(=O)O)N1
assayMetric: Rf
Quick one: just the number, no unit, thanks!

molecule	Rf
CCCCCCCCCCCCNCCCC[C@@H](NC(=O)[C@H](Cc1ccc(O)cc1)NC(=O)[C@H](CO)NC(=O)[C@H](Cc1c[nH]c2ccccc12)NC(=O)[C@@H]1CCC(=O)N1)C(=O)N[C@@H](CC(C)C)C(=O)N[C@@H](CCCNC(=N)N)C(=O)N1CCC[C@H]1C(=O)NCC	0.52
CC(C)C[C@H](NC(=O)[C@@H](CCCCN)NC(=O)[C@H](Cc1ccc(O)cc1)NC(=O)[C@H](CO)NC(=O)[C@H](Cc1c[nH]c2ccccc12)NC(=O)[C@H](Cc1cnc[nH]1)NC(=O)[C@@H]1CCC(=O)N1)C(=O)N[C@@H](CCCNC(=N)N)C(=O)N1CCC[C@H]1C(=O)NCC(N)=O	0.24
CCCCCCCCCCCCNCCC[C@@H](NC(=O)[C@H](Cc1ccc(O)cc1)NC(=O)[C@H](CO)NC(=O)[C@H](Cc1c[nH]c2ccccc12)NC(=O)[C@@H]1CCC(=O)N1)C(=O)N[C@@H](CC(C)C)C(=O)N[C@@H](CCCNC(=N)N)C(=O)N1CCC[C@H]1C(=O)NCC(N)=O ([pGlu]WSY[X1]LRPG-NH2)	0.47

Exercise: If you can, please state the reported Rf value of CCCCCCCCCCCCNCCCC[C@@H](NC(=O)[C@H](Cc1ccc(O)cc1)NC(=O)[C@H](CO)NC(=O)[C@H](Cc1c[nH]c2ccccc12)NC(=O)[C@H](Cc1cnc[nH]1)NC(=O)[C@@H]1CCC(=O)N1)C(=O)N[C@@H](CC(C)C)C(=O)N[C@@H](CCCNC(=N)N)C(=O)N1CCC[C@H]1C(=O)NCC(N)=O .
Key: 0.38

Exercise: Entry CCCCCCCCCCCCNCCCC[C@@H](NC(=O)[C@H](Cc1ccc(O)cc1)NC(=O)[C@H](CO)NC(=O)[C@H](Cc1c[nH]c2ccccc12)NC(=O)[C@@H]1CCC(=O)N1)C(=O)N[C@@H](CC(C)C)C(=O)N[C@@H](CCCNC(=N)N)C(=O)N1CCC[C@H]1C(=O)NCC(N)=O has what Rf?
Key: 0.46

Exercise: Which Rf is listed for CCCCCCCCCCCCNCCCC[C@@H](NC(=O)[C@H](Cc1ccc(O)cc1)NC(=O)[C@H](CO)NC(=O)[C@H](Cc1c[nH]c2ccccc12)NC(=O)[C@H](Cc1cnc[nH]1)NC(=O)[C@@H]1CCC(=O)N1)C(=O)N[C@@H](CC(C)C)C(=O)N[C@@H](CCCNC(=N)N)C(=O)N1CCC[C@H]1C(=O)NCC ?
Key: 0.43

Exercise: Given CCCCCCCCCCCCNCCC[C@@H](NC(=O)[C@H](Cc1ccc(O)cc1)NC(=O)[C@H](CO)NC(=O)[C@H](Cc1c[nH]c2ccccc12)NC(=O)[C@@H]1CCC(=O)N1)C(=O)N[C@@H](CC(C)C)C(=O)N[C@@H](CCCNC(=N)N)C(=O)N1CCC[C@H]1C(=O)NCC ([pGlu]WSY[X1]LRP-NHEt) , state its recorded Rf.
Key: 0.51
